// provenance: patent US11939354B1

test: Cytotoxicity (CC50) of tested peptides; conditions: African green monkey, Vero E6 cells
Ends that are not written are not given here.
experimentalEndpoint: CC50 (µM)
// units = µM; emit number, no label

Input line: Recorded CC50 for HRLRQIRGIRARVVQIQKEIWRLNEVAKLLNESLIYLQE [Peptide 125] , please?
Output line: 255
